- assayMethodText: AUC(0 to 7 hrs) in rat plasma at 20 mg/kg, po
- Format: ADME, organism-based
- Design: time < 7 hr, dose 20 mg/kg, route oral
Kindly state AUC(0-t) at 7 h for each of the entries shown.
Give bare numbers, in ng·h/mL.

Some solved entries appear below for comparison.
INSERT INTO results (smilesrepr, quantityname, unitdescriptor, resultvalue) VALUES
  ('O=C(N[C@@H](C(=O)N1CCC(CN2CCCCC2)CC1)c1ccccc1)c1ccc2c(Cl)c[nH]c2c1', 'AUC(0-t) at 7 h', 'ng·h/mL', 10000),
  ('O=C(N[C@@H](C(=O)N1CCC(CN2CCCCC2)CC1)c1ccccc1)c1ccc2cc[nH]c2c1', 'AUC(0-t) at 7 h', 'ng·h/mL', 23000),
  ('Cc1c[nH]c2cc(C(=O)N[C@@H](C(=O)N3CCC(CN4CCCCC4)CC3)c3ccccc3)ccc12', 'AUC(0-t) at 7 h', 'ng·h/mL', 14000);

Moving on to the next molecule.
Input line: # input molecule: `CN1CCC(C2CCN(C(=O)[C@H](NC(=O)c3ccc4cc[nH]c4c3)c3ccccc3)CC2)CC1` ; wanted: its AUC(0-t) at 7 h
Output line: 19000

The values you see were collected from ChEMBL document CHEMBL1140587.
